System: MCF7
Test: Antiproliferative activity against human MCF7 cells by MTT assay
Assay type: functional, cell-based
endpoint: IC50

Below are worked cases with known answers.
molecular string: c1ccc2c(-c3c[nH]c4ccccc34)nc(N3CCOCC3)nc2c1
tested target: MCF7
observed: > 50 µg/mL
//
molecular string: COc1ccc(-c2nc(N3CCNCC3)nc3ccccc23)c(OC)c1
tested target: MCF7
observed: > 50 µg/mL
//
molecular string: c1ccc2c(-c3c[nH]c4ccccc34)nc(N3CCNCC3)nc2c1
tested target: MCF7
observed: 14.1 µg/mL

So what's the measured IC50 for this one? "COc1ccc(-c2nc(N3CCN(C)CC3)nc3ccccc23)c(OC)c1"
> 50 µg/mL

Consider next the compound "Fc1ccc(N2CCN(c3nc(-c4c[nH]c5ccccc45)c4ccccc4n3)CC2)cc1" in the same way.
> 50 µg/mL
